# Tested on: Fibroblast
# procedure.text: Incucyte cell viability with human fibroblast; also: filed as whole numbers so only -1 and 0 and 1 occur
# Format: toxicity, cell-based
# condition.notes: 0 h, 10 µM, compound concentration 10 uM, replicate number 2, timepoint 0 hours
measurement.kind: Growth Rate
Reply briefly: the number, and no unit.

{"input.smiles": "CN(C)C(=O)Cn1cc(-c2nc(C3(c4ccc(-c5cnc(N)nc5)cc4)CC3)no2)cn1", "Growth Rate": 0}
{"input.smiles": "CCOc1cc(N2CCC(O)CC2)ccc1Nc1ncc2c(n1)N(C1CCCC1)CCC(=O)N2C", "Growth Rate": 0}
{"input.smiles": "CC(C)CC(=O)N1CCc2nc(-c3ccc(Br)cc3)nc(N(C)Cc3ccccc3)c2C1", "Growth Rate": 0}
{"input.smiles": "Cn1cc(-c2ccc3occ(-c4ccccc4-c4ccccc4)c3n2)cn1", "Growth Rate": 0}

Q) Please look up its Growth Rate: CCC(=O)N[C@H]1CC[C@@H](C(=O)N(C)c2ccc(-c3nc4ccccc4o3)cc2)C1
A) 1
